biological target: EPHA2 (EPHA2A) (Homo sapiens, UniProt P29317); construct: purchased in-house DSF kinase panel (SGC-style construct names; the trailing letter is the construct ID); assay: DSF Tm panel; format: binding; details: 10 μM compound
Sequence (P29317 596-900): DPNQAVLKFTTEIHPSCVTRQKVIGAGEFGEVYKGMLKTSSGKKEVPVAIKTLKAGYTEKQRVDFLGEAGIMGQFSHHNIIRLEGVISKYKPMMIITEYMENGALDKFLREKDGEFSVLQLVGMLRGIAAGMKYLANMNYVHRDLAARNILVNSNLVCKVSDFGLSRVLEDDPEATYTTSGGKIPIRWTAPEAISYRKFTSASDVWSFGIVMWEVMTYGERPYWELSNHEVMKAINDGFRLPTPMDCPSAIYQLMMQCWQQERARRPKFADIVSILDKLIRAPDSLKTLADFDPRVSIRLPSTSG
MEASURED PARAMETER: ΔTm at 10 µM
A bare number is not enough; add the unit after it.

Query: Entry COc1ccccc1CNC(=O)Nc1ccc2cc1OCCOCCNc1ccn3ncc-2c3n1 : reported ΔTm at 10 µM = ?
Response: 0.4 °C

Query: Item COc1ccc(CNC(=O)Nc2ccc3cc2OCCOCCNc2ccn4ncc-3c4n2)cc1F has what recorded ΔTm at 10 µM?
Response: 0.3 °C

Query: Entry Cc1cc(Cl)ccc1CNC(=O)Nc1ccc2cc1OCCOCCNc1ccn3ncc-2c3n1 has what ΔTm at 10 µM?
Response: 0.5 °C

Query: Would you mind telling me what ΔTm at 10 µM value was observed for Cc1cc(Br)ccc1CNC(=O)Nc1ccc2cc1OCCOCCNc1ccn3ncc-2c3n1 ?
Response: 0.2 °C

Query: State the recorded ΔTm at 10 µM for this entry: O=C(NCc1ccccc1C(F)(F)F)Nc1ccc2cc1OCCOCCNc1ccn3ncc-2c3n1
Response: 0.2 °C

Query: Please look up its ΔTm at 10 µM: COc1ccc(CNC(=O)Nc2ccc3cc2OCCOCCNc2ccn4ncc-3c4n2)cc1
Response: 0.4 °C

Query: Give the measured ΔTm at 10 µM of O=C(NCc1ccccc1Cl)Nc1ccc2cc1OCCOCCNc1ccn3ncc-2c3n1 .
Response: 0.5 °C

Query: Requested read-out: ΔTm at 10 µM. Entry: O=C(NCc1cccc(Cl)c1)Nc1ccc2cc1OCCOCCNc1ccn3ncc-2c3n1
Response: 0.6 °C
